For each record, write down the corresponding plate-normalized OD600 growth.
test system: Escherichia coli BW25113; experiment: plate-normalized OD600 growth (mean of duplicates) (OD600 (normalized)); higher = more growth (less inhibition); conditions: temperature: 37°C; 24 h; 10 µM
The full ranking holds about 1,600 compounds; the median of “plate-normalized OD600 growth (mean of duplicates)” is about 0.31, and the lowest 2% start at about 0.23. Shown is part of a subset that was picked to be rich in the lowest values.
Numbers only.

Past entries and their recorded results:
MOLECULE: Cc1cccc(N2C(=O)CC(N3CCN(Cc4ccccc4)CC3)C2=O)c1 (configuration not stated)
REPORTED RESULT: 0.616
//
MOLECULE: O=C(NC1CCCCCC1)c1ccc([N+](=O)[O-])cc1
REPORTED RESULT: 0.629
//
MOLECULE: COc1ccc(OC)c(Nc2nc(C)c(C(C)=O)s2)c1
REPORTED RESULT: 0.646

# map each molecule to its plate-normalized OD600 growth
1. Cc1ccc(NC(=O)[C@@H]2C3C=CC(C3)[C@@H]2C(=O)O)c(C)c1 (some centres not stated)
2. CCOc1ccc(C(=O)Nc2ccc(S(=O)(=O)Nc3nccs3)cc2)cc1
3. O=C(Nc1ccncc1)c1ccc(Cl)cc1Cl

0.648
0.613
0.623

Respectfully, I request plate-normalized OD600 growth for each entry included below.
1. N#CCCS(=O)(=O)c1ccc(Br)cc1
2. O=[N+]([O-])c1ccc(CNC2CCCC2)cc1
3. CCOc1cc(/C=C(\C#N)c2nc(-c3ccc(OC)cc3)cs2)ccc1O
4. Cc1c(C(=O)NC2CCCC2)cccc1[N+](=O)[O-]

1: 0.63; 2: 0.621; 3: 0.615; 4: 0.636

Answer for every listed entry: what is its plate-normalized OD600 growth? The entries follow.
1. CC(=O)Nc1cccc(NC(=O)Nc2cccc(Cl)c2)c1
2. Cc1nonc1NC(=O)Nc1ccncc1

0.585
0.615

====

system: Escherichia coli BW25113; assay: plate-normalized OD600 growth (mean of duplicates) (OD600 (normalized)); higher = more growth (less inhibition); conditions: temperature: 15°C; 48 h; 10 µM
Over roughly 1,600 compounds, “plate-normalized OD600 growth (mean of duplicates)” has its median near 0.31; the lowest 2% begin near 0.23. This is one part of a sample in which the lowest values are shown more often than they occur.
Would you kindly list plate-normalized OD600 growth for each of these compounds?
Answers are plain numbers.

Consider the worked cases shown below.
COMPOUND: Nc1ccc(Cl)cc1SCC(=O)O
plate-normalized OD600 growth: 0.242
//
COMPOUND: C/C=C(\C)CN1CCN(CCOCCO)CC1
plate-normalized OD600 growth: 0.269
//
COMPOUND: Cc1nc(N)sc1-c1csc(Nc2ccc(O)cc2)n1
plate-normalized OD600 growth: 0.239
//
COMPOUND: CCOc1ccc(Nc2nc(-c3ccc(CC(C)C)cc3)cs2)cc1
plate-normalized OD600 growth: 0.223
//
COMPOUND: CCc1ccc(-c2csc(Nc3cccc(OC)c3)n2)cc1
plate-normalized OD600 growth: 0.222

Batch of 2 compounds: report plate-normalized OD600 growth for each.
1. Clc1ccc(-c2csc(Nc3ccc4c(c3)OCO4)n2)cc1
2. CCN(CC)CCOc1ccccc1Br

0.24
0.233

====

test system: Escherichia coli BW25113; assay: plate-normalized OD600 growth (mean of duplicates) (OD600 (normalized)); higher = more growth (less inhibition); settings: temperature: 37°C; 24 h; 10 µM
The full ranking holds about 1,600 compounds; the median of “plate-normalized OD600 growth (mean of duplicates)” is about 0.31, and the lowest 2% start at about 0.23. The sample as a whole holds a higher share of the lowest values than the screen did.
ASSAY ENDPOINT: plate-normalized OD600 growth
One number for each entry.

COMPOUND: COc1cccc(N2CCN(CC3CC4C=CC3C4)CC2)c1 (stereo unspecified)
plate-normalized OD600 growth: 0.627
--
COMPOUND: O=[N+]([O-])c1ccccc1/C=C/CN1CCCCC1CO (stereo unspecified)
plate-normalized OD600 growth: 0.63
--
COMPOUND: CC(=O)N1c2ccccc2NC2=C(C(=O)CC(C)(C)C2)C1c1cccn1C (stereo unspecified)
plate-normalized OD600 growth: 0.612
--
COMPOUND: CN1CCC(NCc2ccccc2F)CC1
plate-normalized OD600 growth: 0.645
--
COMPOUND: Cc1ccccc1CN(C)C1CCN(C)CC1
plate-normalized OD600 growth: 0.628

State the recorded plate-normalized OD600 growth for this entry: CC1(C)CC(=O)C2=C(C1)Nc1ccccc1NC2c1cc2c(cc1[N+](=O)[O-])OCO2 (stereo unspecified)
0.606

====

tested on: Escherichia coli BW25113; assay: plate-normalized OD600 growth (mean of duplicates) (OD600 (normalized)); higher = more growth (less inhibition); conditions: temperature: 37°C; 24 h; 10 µM
In all, about 1,600 compounds were measured (“plate-normalized OD600 growth (mean of duplicates)”: median about 0.31, lowest 2% from about 0.23 on). Many of the other results were omitted from the sample, so the lowest values are more common in it than they were.
Provide the recorded plate-normalized OD600 growth for the entries that follow.

Observe how each entry below is paired with its result.
COMPOUND: CC1CCC2(CC1)C(C#N)C(=O)NC(=O)C2C#N (stereo not drawn)
SYSTEM NAME: Escherichia coli BW25113
REPORTED RESULT: 0.615

COMPOUND: Cc1ccsc1CN1CCN(c2ccc([N+](=O)[O-])cc2)CC1
SYSTEM NAME: Escherichia coli BW25113
REPORTED RESULT: 0.634

COMPOUND: c1ccc2c(c1)CCN(Cc1ccncc1)C2
SYSTEM NAME: Escherichia coli BW25113
REPORTED RESULT: 0.651

COMPOUND: C/C=C(\C)CN1CCN(CCOCCO)CC1
SYSTEM NAME: Escherichia coli BW25113
REPORTED RESULT: 0.664

Would you mind giving plate-normalized OD600 growth for every compound in the list below?
1. CN(C)c1ccc(CN2CCc3ccccc3C2)cc1
2. COc1ccc(-c2csc(N)n2)cc1Br

1: 0.619; 2: 0.647

Count: 7. Required value per item: plate-normalized OD600 growth.
1. N#Cc1c(N)nc2c(c1-c1ccco1)CCCCCC2
2. COc1ccc(NC(=O)c2ccccc2OC)cc1OC
3. Cc1ccc(C2C(C#N)=C(N)Oc3n[nH]c(C)c32)s1 (stereo not drawn)
4. O=C(Nc1nc(/C=C/c2ccccc2)[nH]c(=O)n1)NS(=O)(=O)c1ccccc1Cl
5. COc1ccc(C(C)=O)cc1Cc1c(O)nc(SC)[nH]c1=O
6. Nc1nc2sc3c(c2cc1C(=O)N1CCOCC1)CCCC3
7. COc1cccc(NC(=O)c2ccncc2)c1

0.615
0.615
0.658
0.587
0.629
0.625
0.618

====

test system: Escherichia coli BW25113; test: plate-normalized OD600 growth (mean of duplicates) (OD600 (normalized)); higher = more growth (less inhibition); conditions: temperature: 15°C; 48 h; 10 µM
In all, about 1,600 compounds were measured (“plate-normalized OD600 growth (mean of duplicates)”: median about 0.31, lowest 2% from about 0.23 on). Shown is part of a subset that was picked to be rich in the lowest values.
For each entry below, report its plate-normalized OD600 growth value.

Observe how each entry below is paired with its result.
COMPOUND: C1CCCC(NCCN2CCCCC2)CCC1
REPORTED RESULT: 0.234
//
COMPOUND: CC(=O)N1CCC(NC2CCCCCC2)CC1
REPORTED RESULT: 0.269
//
COMPOUND: CCN(CCN(C)C)C1CCCCCC1
REPORTED RESULT: 0.26

Return reported plate-normalized OD600 growth values for all items listed beneath this line.
1. CCOc1ccc(C(=O)c2ccc([N+](=O)[O-])cc2Cl)cc1
2. NC(=O)CCC(=O)NC12CC3CC(CC(C3)C1)C2
3. N#CSCCCCOc1ccccc1Cl
4. CC1CCC2(CC1)C(C#N)C(=O)NC(=O)C2C#N (stereo not drawn)
5. Cc1ccc(NC(=O)[C@@H]2C3C=CC(C3)[C@@H]2C(=O)O)c(C)c1 (stereo partly drawn)

1: 0.265; 2: 0.227; 3: 0.251; 4: 0.244; 5: 0.247

====

For each entry below, report its plate-normalized OD600 growth value.
tested on: Escherichia coli BW25113; test: plate-normalized OD600 growth (mean of duplicates) (OD600 (normalized)); higher = more growth (less inhibition); details: temperature: 37°C; 24 h; 10 µM
Over roughly 1,600 compounds, “plate-normalized OD600 growth (mean of duplicates)” has its median near 0.31; the lowest 2% begin near 0.23. This is one part of a sample in which the lowest values are shown more often than they occur.
Numbers only.

Solved cases below.
SMILES STRUCTURE: O=C(O)CSc1ccc(Br)cc1
plate-normalized OD600 growth: 0.609
--
SMILES STRUCTURE: COc1ccc(Cc2ccc(OC)c(N)c2)cc1N
plate-normalized OD600 growth: 0.632
--
SMILES STRUCTURE: Cc1nnc(Sc2ccc(C=O)o2)s1
plate-normalized OD600 growth: 0.604
--
SMILES STRUCTURE: CCOC(=O)N1CCN(Cc2cc(C)ccc2C)CC1
plate-normalized OD600 growth: 0.646

Answer for every listed entry: what is its plate-normalized OD600 growth? The entries follow.
1. COc1cc(C)c(N)cc1C(C)C
2. CCCCOc1ccc(CN2CCN(CCOCCO)CC2)cc1
3. Nc1ccc(Cl)cc1SCC(=O)O

0.6
0.626
0.599
